Kindly state MIC for each of the entries shown.
# System: Escherichia coli
# Assay details: In vitro antibacterial activity against Escherichia coli, expressed as minimum inhibitory concentration (MIC)
# Format: functional
*1 amine or outer side, *2 acyl side, *3 side chain or, on linkers, in order; H or OH if unused. Where a SMILES comes first, the peptide text is derived from it. Bridges are numbered along the chain shown (N, C = ends). Side-chain parts run from the residue outwards. [ ]: non-standard residue; d: D form. The star is where a group is joined. ξ: configuration not given here. X4 = NC1=NCCC([C@H](N[*:1])C(=O)[*:2])N1; ΔAla(Z-3-ureido) = NC(=O)N/C=C(\N)C(=O)O; ΔDap(Z) = O=C(/C(=C/N[*:3])N[*:1])[*:2]; β3hOrn = NCCC[C@H](N)CC(=O)*; X7 = c1cc(N2CCCCC2)ccc1N*; Dap = NC[C@H](N)C(=O)O; CO = O=C([*:1])[*:2]; ξDap = NCC(N)C(=O)O
Answers are plain numbers, in µg/mL.

Ask | Give the value of MIC reported for the following: NCCC[C@H](N)CC(=O)NC[C@@H]1NC(=O)[C@H](CO)NC(=O)C(N)CNC(=O)[C@H](C2CCN=C(N)N2)NC(=O)/C(=C/NC(=O)Nc2cc(Cl)c(Cl)c(Cl)c2)NC1=O (some centres undefined)
Reply | 12.5

Ask | Give the value of MIC reported for the following: NCCC[C@H](N)CC(=O)NC[C@@H]1NC(=O)[C@H](CO)NC(=O)C(N)CNC(=O)[C@H](C2CCN=C(N)N2)NC(=O)/C(=C/NC(=O)Nc2ccc(N3CCCCC3)cc2)NC1=O (stereo partly drawn) (H-[ξDap]S[Dap](β3hOrn)[ΔDap(Z)]([CO-X7])[X4]; lactam 1-C)
Reply | 50

Ask | Give the value of MIC reported for the following: C[C@@H]1NC(=O)C(N)CNC(=O)[C@H](C2CCN=C(N)N2)NC(=O)/C(=C/NC(N)=O)NC(=O)[C@H](CNC(=O)C[C@@H](N)CCCN)NC1=O.NCCC[C@H](N)CC(=O)NC[C@@H]1NC(=O)[C@H](CO)NC(=O)C(N)CNC(=O)[C@H](C2CCN=C(N)N2)NC(=O)/C(=C/NC(N)=O)NC1=O (stereo partly drawn) (H-[ξDap]S[Dap](β3hOrn)[ΔAla(Z-3-ureido)][X4]; lactam 1-C)
Reply | 200

Let's switch to this molecule now.
Ask | Give the value of MIC reported for the following: C[C@@H]1NC(=O)C(N)CNC(=O)[C@H](C2CCN=C(N)N2)NC(=O)/C(=C/Nc2nc(-c3ccc(Br)cc3)cs2)NC(=O)[C@H](CNC(=O)C[C@@H](N)CCCN)NC1=O.NCCC[C@H](N)CC(=O)NC[C@@H]1NC(=O)[C@H](CO)NC(=O)C(N)CNC(=O)[C@H](C2CCN=C(N)N2)NC(=O)/C(=C/Nc2nc(-c3ccc(Br)cc3)cs2)NC1=O (some centres undefined)
Reply | 100

----------
Kindly state MIC for each of the entries shown.
# Test system: Escherichia coli
# Assay details: In vitro antibacterial activity against Escherichia coli, expressed as minimum inhibitory concentration (MIC)
# Assay type: functional
*1 amine or outer side, *2 acyl side, *3 side chain or, on linkers, in order; H or OH if unused. Where a SMILES comes first, the peptide text is derived from it. Bridges are numbered along the chain shown (N, C = ends). Side-chain parts run from the residue outwards. [ ]: non-standard residue; d: D form. The star is where a group is joined. ξ: configuration not given here. NH(4-cHex-phenyl) = c1cc(C2CCCCC2)ccc1N*; X4 = NC1=NCCC([C@H](N[*:1])C(=O)[*:2])N1; ΔDap(Z) = O=C(/C(=C/N[*:3])N[*:1])[*:2]; X6 = c1ccc(Cc2ccc(N*)cc2)cc1; β3hOrn = NCCC[C@H](N)CC(=O)*; Dap = NC[C@H](N)C(=O)O; CO = O=C([*:1])[*:2]; X5 = Clc1cc(N*)ccc1I; ξDap = NCC(N)C(=O)O
Numbers only, in µg/mL.

Ask | Recall the reported MIC of C[C@@H]1NC(=O)C(N)CNC(=O)[C@H](C2CCN=C(N)N2)NC(=O)/C(=C/NC(=O)Nc2ccc(Cc3ccccc3)cc2)NC(=O)[C@H](CNC(=O)C[C@@H](N)CCCN)NC1=O.NCCC[C@H](N)CC(=O)NC[C@@H]1NC(=O)[C@H](CO)NC(=O)C(N)CNC(=O)[C@H](C2CCN=C(N)N2)NC(=O)/C(=C/NC(=O)Nc2ccc(Cc3ccccc3)cc2)NC1=O (stereo partly drawn) (H-[ξDap]S[Dap](β3hOrn)[ΔDap(Z)]([CO-X6])[X4]; lactam 1-C) when tested on Escherichia coli.
Reply | 12.5

Ask | Recall the reported MIC of NCCC[C@H](N)CC(=O)NC1CNC(=O)[C@H](C2C[C@@H](O)N=C(N)N2)NC(=O)/C(=C/Nc2ccc(Cl)c(Cl)c2)NC(=O)[C@H](CO)NC(=O)[C@H](CO)NC1=O (some centres undefined) when tested on Escherichia coli.
Reply | 12.5

Ask | Recall the reported MIC of NCCC[C@H](N)CC(=O)NC[C@@H]1NC(=O)[C@H](CO)NC(=O)C(N)CNC(=O)[C@H](C2CCN=C(N)N2)NC(=O)/C(=C/NC(=O)Nc2ccc(C3CCCCC3)cc2)NC1=O (stereo partly drawn) (H-[ξDap]S[Dap](β3hOrn)[ΔDap(Z)]([CO-NH(4-cHex-phenyl)])[X4]; lactam 1-C) when tested on Escherichia coli.
Reply | 25

Others:
Ask | Recall the reported MIC of C[C@@H]1NC(=O)C(N)CNC(=O)[C@H](C2CCN=C(N)N2)NC(=O)C(CNC(=O)Nc2ccc(I)c(Cl)c2)NC(=O)[C@H](CNC(=O)C[C@@H](N)CCCN)NC1=O.NCCC[C@H](N)CC(=O)NC[C@@H]1NC(=O)[C@H](CO)NC(=O)C(N)CNC(=O)[C@H](C2CCN=C(N)N2)NC(=O)C(CNC(=O)Nc2ccc(I)c(Cl)c2)NC1=O (stereo partly drawn) (H-[ξDap]S[Dap](β3hOrn)[ξDap]([CO-X5])[X4]; lactam 1-C) when tested on Escherichia coli.
Reply | 6.25
